- METHOD: 1-octanol-potassium phosphate buffer partition co-efficient, log P of the compound incubated overnight by shake-flask method
- Format: physicochemical
ENDPOINT_LABEL: logP
Please give the numeric answer without any surrounding text.

Data request: Look at this compound and give its reported logP. "O=C(Nc1ccccc1)c1csc2c(C3CC3)c(Cc3cccc4ccccc34)cc(=O)n12"
Data returned: 5

---

- Test system: Chlamydia trachomatis
- METHOD: Antimicrobial activity against Chlamydia trachomatis serovar LGV-L2 infected in human HeLa cells assessed as concentration require to reduce relative inclusion forming units by 95% after 48 hrs
- Format: functional
Listed here: items and their measured Activity.
Output spec: scalar in µM, unitless text.

Consider the worked cases shown below.
COc1cccc(NC(=O)C2CSc3c(C4CC4)c(Cc4cccc5ccccc45)cc(=O)n32)c1 (configuration not stated); 2.5
Cc1cccc(Cc2cc(=O)n3c(c2C2CC2)SCC3C(=O)Nc2ccccc2)c1C (configuration not stated); 2.5
O=C(Nc1ccccc1)C1CSc2c(C3CC3)c(Cc3cccc(Cl)c3Cl)cc(=O)n21 (configuration not stated); 2.5
O=C(Nc1ccncn1)C1CSc2c(C3CC3)c(Cc3cccc4ccccc34)cc(=O)n21 (configuration not stated); 2.5
O=C(Nc1ccccc1)C1CSc2c(C3CC3)c(Cc3cccc4ccccc34)cc(=O)n21 (racemic); 2.5
O=C(Nc1nccs1)C1CSc2c(C3CC3)c(Cc3cccc4ccccc34)cc(=O)n21 (configuration not stated); 5
O=C(Nc1cccc(F)c1)C1CSc2c(C3CC3)c(Cc3cccc4ccccc34)cc(=O)n21 (configuration not stated); 2.5
O=C(Nc1ccccc1)[C@H]1CSc2c(C3CC3)c(Cc3cccc4ccccc34)cc(=O)n21; 2.5
O=C(NC1CCCCC1)C1CSc2c(C3CC3)c(Cc3cccc4ccccc34)cc(=O)n21 (configuration not stated); 10
Nc1c(Cc2cccc3ccccc23)c(C2CC2)c2n(c1=O)C(C(=O)Nc1ccncn1)CS2 (configuration not stated); 2.5

Data request: Tell me the measured Activity of Cc1cccc(Cc2cc(=O)n3c(c2C2CC2)SCC3C(=O)Nc2ccccc2)c1 (configuration not stated) , please.
Data returned: 2.5

Data request: Activity for Cc1ccc(Cc2cc(=O)n3c(c2C2CC2)SCC3C(=O)Nc2ccccc2)cc1C (configuration not stated) ?
Data returned: 2.5

Data request: Which Activity is listed for NC(=O)c1ccc(NC(=O)C2CSc3c(C4CC4)c(Cc4cccc5ccccc45)cc(=O)n32)cc1 (configuration not stated) ?
Data returned: 2.5

Data request: Data request, read-out Activity, for CNC(=O)C1CSc2c(C3CC3)c(Cc3cccc4ccccc34)cc(=O)n21 (configuration not stated)
Data returned: 10

Data request: Entry Cc1ccc(NC(=O)C2CSc3c(C4CC4)c(Cc4ccc(Cl)cc4)c(N)c(=O)n32)cc1 (configuration not stated) has what Activity?
Data returned: 2.5

---

- METHOD: 1-octanol-potassium phosphate buffer distribution co-efficient, log D of the compound incubated overnight at pH 7.4 by shake-flask method
ENDPOINT_LABEL: logD

Data request: Would you mind telling me what logD value was observed for Nc1c(Cc2cccc3ccccc23)c(C2CC2)c2n(c1=O)C(C(=O)Nc1ccccc1)CS2 (stereo unspecified) ?
Data returned: 4.3

---

- Tested on: Chlamydia trachomatis
- METHOD: Antimicrobial activity against Chlamydia trachomatis serovar LGV-L2 infected in human HeLa cells assessed as concentration require to reduce relative inclusion forming units by 95% after 48 hrs
- Type: functional
Listed here: items and their measured Activity.

The examples below pair each entry with its known result.
O=C(Nc1cccnc1)C1CSc2c(C3CC3)c(Cc3cccc4ccccc34)cc(=O)n21 (stereo not drawn); 10 µM
O=C(Nc1cccc(Cl)c1)C1CSc2c(C3CC3)c(Cc3cccc4ccccc34)cc(=O)n21 (stereo not drawn); 2.5 µM

Next, consider the following molecule.
Data request: So what's the measured Activity for this one? O=C(Nc1ccccc1)C1CSc2c(C3CC3)c(Cc3ccccc3)cc(=O)n21 (stereo not drawn)
Data returned: 2.5 µM

---

- METHOD: Cytotoxicity against human HeLa cells assessed as cell viability at 10 uM after 48 hrs by resazurin assay relative to control
- Assay type: cell-based
- RUN_CONDITIONS: read-out: Activity
ENDPOINT_LABEL: viability at 48 h, 10 µM
Answer with the number, then the unit.

Cc1cc(=O)n2c(c1C1CC1)SCC2C(=O)Nc1ccccc1 (centres undefined); 99%
Cc1ccc(NC(=O)C2CSc3c(C4CC4)c(Cc4cccc5ccccc45)cc(=O)n32)cc1 (centres undefined); 97%
CON(C)C(=O)C1CSc2c(C3CC3)c(Cc3cccc4ccccc34)cc(=O)n21 (centres undefined); 88%
Cc1ccc(NC(=O)C2CSc3c(C4CC4)c(Cc4cccc(C)c4C)cc(=O)n32)cc1 (centres undefined); 95%
CCc1cccc(NC(=O)C2CSc3c(C4CC4)c(Cc4cccc5ccccc45)cc(=O)n32)c1 (centres undefined); 100%

Data request: Fill blank: measured viability at 48 h, 10 µM of the compound O=C(C1CSc2c(C3CC3)c(Cc3cccc4ccccc34)cc(=O)n21)N1CCOCC1 (centres undefined) is ____.
Data returned: 90%

Data request: What does the record list as viability at 48 h, 10 µM for O=C(Nc1ccccn1)C1CSc2c(C3CC3)c(Cc3cccc4ccccc34)cc(=O)n21 (centres undefined) ?
Data returned: 90%

Data request: Requested read-out: viability at 48 h, 10 µM. Entry: NC(=O)c1ccc(NC(=O)C2CSc3c(C4CC4)c(Cc4cccc5ccccc45)cc(=O)n32)cc1 (centres undefined)
Data returned: 98%

Data request: Quick one: viability at 48 h, 10 µM of Cc1ccc(NC(=O)C2CSc3c(C4CC4)c(Cc4ccc(Cl)cc4)c(N)c(=O)n32)cc1 (centres undefined) ?
Data returned: 101%

Data request: Any idea what its viability at 48 h, 10 µM is? The compound is Cc1ccc(Cc2cc(=O)n3c(c2C2CC2)SCC3C(=O)Nc2ccccc2)cc1C (centres undefined)
Data returned: 91%

Data request: Which viability at 48 h, 10 µM value is on record for O=C(Nc1cccc(C(F)(F)F)c1)C1CSc2c(C3CC3)c(Cc3cccc4ccccc34)cc(=O)n21 (centres undefined) ?
Data returned: 95%

Data request: Look at this compound and give its reported viability at 48 h, 10 µM. NS(=O)(=O)c1ccc(NC(=O)C2CSc3c(C4CC4)c(Cc4cccc5ccccc45)cc(=O)n32)cc1 (centres undefined)
Data returned: 95%

Data request: Name the reported viability at 48 h, 10 µM value associated with the compound O=C(Nc1ccccc1)C1CSc2c(C3CC3)c(Cc3cccc(Cl)c3Cl)cc(=O)n21 (centres undefined)
Data returned: 85%

---

- System: Chlamydia trachomatis
- METHOD: Antimicrobial activity against Chlamydia trachomatis serovar LGV-L2 infected in human HeLa cells assessed as concentration require to reduce relative inclusion forming units by 95% after 48 hrs
- Type: functional
ENDPOINT_LABEL: Activity (µM)
State the answer as a number, implicitly in µM.

Sample answers from the record:
O=C(NCc1ccccc1)C1CSc2c(C3CC3)c(Cc3cccc4ccccc34)cc(=O)n21 (configuration not stated); 2.5
Cc1ccc(NC(=O)C2CSc3c(C4CC4)c(Cc4cccc5ccccc45)c(N)c(=O)n32)cc1 (configuration not stated); 0.25
Cc1ccc(NC(=O)C2CSc3c(C4CC4)c(Cc4cccc(C)c4C)c(N)c(=O)n32)cc1 (configuration not stated); 1
O=C(Nc1ccccc1)c1csc2c(C3CC3)c(Cc3cccc4ccccc34)cc(=O)n12; 2.5
O=C(Nc1ccccc1)[C@@H]1CSc2c(C3CC3)c(Cc3cccc4ccccc34)c(CN3CCOCC3)c(=O)n21; 5
Nc1c(Cc2cccc3ccccc23)c(C2CC2)c2n(c1=O)C(C(=O)Nc1ccccc1)CS2 (configuration not stated); 0.25
O=C(Nc1cccc(C(F)(F)F)c1)C1CSc2c(C3CC3)c(Cc3cccc4ccccc34)cc(=O)n21 (configuration not stated); 2.5
CCc1cccc(NC(=O)C2CSc3c(C4CC4)c(Cc4cccc5ccccc45)cc(=O)n32)c1 (configuration not stated); 2.5

Data request: Requested read-out: Activity. Entry: O=C(Nc1ccccc1)C1CSc2c(C3CC3)c(Cc3cccc4ncccc34)cc(=O)n21 (configuration not stated)
Data returned: 10

Data request: Value lookup for Activity; key = Cc1ccc(NC(=O)C2CSc3c(C4CC4)c(Cc4ccc(Cl)cc4)cc(=O)n32)cc1 (configuration not stated)
Data returned: 1

Data request: Please give the measured Activity for this molecule: O=C(Nc1ccncc1)C1CSc2c(C3CC3)c(Cc3cccc4ccccc34)cc(=O)n21 (configuration not stated)
Data returned: 5

Data request: Could you tell me which Activity is on file for COc1ccc(NC(=O)C2CSc3c(C4CC4)c(Cc4cccc5ccccc45)cc(=O)n32)cc1 (configuration not stated) ?
Data returned: 2.5

Data request: Returns the measured Activity for the input molecule. Input: "O=C(Nc1ccccc1)[C@@H]1CSc2c(C3CC3)c(Cc3cccc4ccccc34)cc(=O)n21"
Data returned: 2.5

Data request: Requested read-out: Activity. Entry: COc1ccc(Cc2cc(=O)n3c(c2C2CC2)SCC3C(=O)Nc2ccccc2)cc1 (configuration not stated)
Data returned: 2.5

Data request: Look up Activity: O=C(Nc1ccccc1)C1CSc2c(C3CC3)c(Cc3ccc(Cl)cc3)cc(=O)n21 (configuration not stated)
Data returned: 2.5

Data request: For Cc1cc(=O)n2c(c1C1CC1)SCC2C(=O)Nc1ccccc1 (configuration not stated) , what is its reported Activity?
Data returned: 10
